Biological target: T1, IFN-αF (human, UniProt P01568 24-189)
T1 construct: also called IFN-α21; alpha F
T1 chain: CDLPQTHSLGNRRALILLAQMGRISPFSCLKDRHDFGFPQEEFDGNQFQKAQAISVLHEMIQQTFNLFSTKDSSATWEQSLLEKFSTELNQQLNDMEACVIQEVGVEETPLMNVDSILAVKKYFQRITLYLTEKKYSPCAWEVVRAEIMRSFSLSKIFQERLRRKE
Assay: ProteOn, one antigen concentration
pKd: −log10 of the molar value.
ASSAY_READOUT: pKd

binder="IFWM3353 (antibody, V domains shown, VH IFWH624, VL IFWL1014; converted mAb; also called IFWB3088) VH: EVQLVQSGAEVKKPGESLKISCKGSGYSFTSYWIGWVRQMPGKGLEWMGIIDPSDSDTAYSPSFQGQVTISADKSISTAYLQWSSLKASDTAMYYCARHPGLNWAPDFDYWGQGTLVTVSS VL: DIQMTQSPSSLSASVGDRVTITCRASQSIDRALNWYQQKPGKAPKLLIYFASSLQSGVPSRFSGSGSGTDFTLTISSLQPEDFATYYCQQSFDFPLTFGQGTKVEIK" endpoint_result=10.26
binder="IFWM3336 (antibody, V domains shown, VH IFWH591, VL IFWL1085; converted mAb; also called IFWB3071) VH: EVQLVQSGAEVKKPGESLKISCKGSGYSFTSYWIGWVRQMPGKGLEWMGIIDPSDSDTRYSPSFQGQVTISADKSISTAYLQWSSLKASDTAMYYCARHPGLNWAPDFDYWGQGTLVTVSS VL: DIQMTQSPSSLSASVGDRVTITCRASQSIRNNYLNWYQQKPGKAPKLLIYAASSLQSGVPSRFSGSGSGTDFTLTISSLQPEDFATYYCQQGYDTPLTFGQGTKVEIK" endpoint_result=10.21
binder="IFWM3292 (antibody, V domains shown, VH IFWH624, VL IFWL999; converted mAb; also called IFWB3027) VH: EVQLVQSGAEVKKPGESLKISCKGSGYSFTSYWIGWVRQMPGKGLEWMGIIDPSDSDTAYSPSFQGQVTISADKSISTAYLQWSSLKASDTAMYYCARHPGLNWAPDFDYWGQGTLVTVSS VL: DIQMTQSPSSLSASVGDRVTITCRASQSIDEFLNWYQQKPGKAPKLLIYFASSLQSGVPSRFSGSGSGTDFTLTISSLQPEDFATYYCQQAHSFPLTFGQGTKVEIK" endpoint_result=10.01
binder="IFWM3318 (antibody, V domains shown, VH IFWH591, VL IFWL1038; converted mAb; also called IFWB3053) VH: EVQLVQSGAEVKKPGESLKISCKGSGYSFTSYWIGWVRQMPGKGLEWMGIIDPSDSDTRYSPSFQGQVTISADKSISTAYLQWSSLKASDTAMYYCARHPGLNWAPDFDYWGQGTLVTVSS VL: DIQMTQSPSSLSASVGDRVTITCRASQSISEYLNWYQQKPGKAPKLLIYFASSLQSGVPSRFSGSGSGTDFTLTISSLQPEDFATYYCQQSHSLPITFGQGTKVEIK" endpoint_result=10.47
binder="IFWM3315 (antibody, V domains shown, VH IFWH591, VL IFWL1017; converted mAb; also called IFWB3050) VH: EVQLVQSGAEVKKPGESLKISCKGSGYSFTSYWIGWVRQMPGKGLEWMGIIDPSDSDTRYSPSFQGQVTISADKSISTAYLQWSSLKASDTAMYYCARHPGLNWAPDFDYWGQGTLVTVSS VL: DIQMTQSPSSLSASVGDRVTITCRASQSITSSLNWYQQKPGKAPKLLIYFASSLQSGVPSRFSGSGSGTDFTLTISSLQPEDFATYYCQQSFDLPLTFGQGTKVEIK" endpoint_result=10.30

// provenance: patent US20150368338A1
